Target: Ros1 enzyme (Homo sapiens, UniProt P08922)
Construct: 0.5 μg/ml Ros1 enzyme
Sequence (P08922 28-2347): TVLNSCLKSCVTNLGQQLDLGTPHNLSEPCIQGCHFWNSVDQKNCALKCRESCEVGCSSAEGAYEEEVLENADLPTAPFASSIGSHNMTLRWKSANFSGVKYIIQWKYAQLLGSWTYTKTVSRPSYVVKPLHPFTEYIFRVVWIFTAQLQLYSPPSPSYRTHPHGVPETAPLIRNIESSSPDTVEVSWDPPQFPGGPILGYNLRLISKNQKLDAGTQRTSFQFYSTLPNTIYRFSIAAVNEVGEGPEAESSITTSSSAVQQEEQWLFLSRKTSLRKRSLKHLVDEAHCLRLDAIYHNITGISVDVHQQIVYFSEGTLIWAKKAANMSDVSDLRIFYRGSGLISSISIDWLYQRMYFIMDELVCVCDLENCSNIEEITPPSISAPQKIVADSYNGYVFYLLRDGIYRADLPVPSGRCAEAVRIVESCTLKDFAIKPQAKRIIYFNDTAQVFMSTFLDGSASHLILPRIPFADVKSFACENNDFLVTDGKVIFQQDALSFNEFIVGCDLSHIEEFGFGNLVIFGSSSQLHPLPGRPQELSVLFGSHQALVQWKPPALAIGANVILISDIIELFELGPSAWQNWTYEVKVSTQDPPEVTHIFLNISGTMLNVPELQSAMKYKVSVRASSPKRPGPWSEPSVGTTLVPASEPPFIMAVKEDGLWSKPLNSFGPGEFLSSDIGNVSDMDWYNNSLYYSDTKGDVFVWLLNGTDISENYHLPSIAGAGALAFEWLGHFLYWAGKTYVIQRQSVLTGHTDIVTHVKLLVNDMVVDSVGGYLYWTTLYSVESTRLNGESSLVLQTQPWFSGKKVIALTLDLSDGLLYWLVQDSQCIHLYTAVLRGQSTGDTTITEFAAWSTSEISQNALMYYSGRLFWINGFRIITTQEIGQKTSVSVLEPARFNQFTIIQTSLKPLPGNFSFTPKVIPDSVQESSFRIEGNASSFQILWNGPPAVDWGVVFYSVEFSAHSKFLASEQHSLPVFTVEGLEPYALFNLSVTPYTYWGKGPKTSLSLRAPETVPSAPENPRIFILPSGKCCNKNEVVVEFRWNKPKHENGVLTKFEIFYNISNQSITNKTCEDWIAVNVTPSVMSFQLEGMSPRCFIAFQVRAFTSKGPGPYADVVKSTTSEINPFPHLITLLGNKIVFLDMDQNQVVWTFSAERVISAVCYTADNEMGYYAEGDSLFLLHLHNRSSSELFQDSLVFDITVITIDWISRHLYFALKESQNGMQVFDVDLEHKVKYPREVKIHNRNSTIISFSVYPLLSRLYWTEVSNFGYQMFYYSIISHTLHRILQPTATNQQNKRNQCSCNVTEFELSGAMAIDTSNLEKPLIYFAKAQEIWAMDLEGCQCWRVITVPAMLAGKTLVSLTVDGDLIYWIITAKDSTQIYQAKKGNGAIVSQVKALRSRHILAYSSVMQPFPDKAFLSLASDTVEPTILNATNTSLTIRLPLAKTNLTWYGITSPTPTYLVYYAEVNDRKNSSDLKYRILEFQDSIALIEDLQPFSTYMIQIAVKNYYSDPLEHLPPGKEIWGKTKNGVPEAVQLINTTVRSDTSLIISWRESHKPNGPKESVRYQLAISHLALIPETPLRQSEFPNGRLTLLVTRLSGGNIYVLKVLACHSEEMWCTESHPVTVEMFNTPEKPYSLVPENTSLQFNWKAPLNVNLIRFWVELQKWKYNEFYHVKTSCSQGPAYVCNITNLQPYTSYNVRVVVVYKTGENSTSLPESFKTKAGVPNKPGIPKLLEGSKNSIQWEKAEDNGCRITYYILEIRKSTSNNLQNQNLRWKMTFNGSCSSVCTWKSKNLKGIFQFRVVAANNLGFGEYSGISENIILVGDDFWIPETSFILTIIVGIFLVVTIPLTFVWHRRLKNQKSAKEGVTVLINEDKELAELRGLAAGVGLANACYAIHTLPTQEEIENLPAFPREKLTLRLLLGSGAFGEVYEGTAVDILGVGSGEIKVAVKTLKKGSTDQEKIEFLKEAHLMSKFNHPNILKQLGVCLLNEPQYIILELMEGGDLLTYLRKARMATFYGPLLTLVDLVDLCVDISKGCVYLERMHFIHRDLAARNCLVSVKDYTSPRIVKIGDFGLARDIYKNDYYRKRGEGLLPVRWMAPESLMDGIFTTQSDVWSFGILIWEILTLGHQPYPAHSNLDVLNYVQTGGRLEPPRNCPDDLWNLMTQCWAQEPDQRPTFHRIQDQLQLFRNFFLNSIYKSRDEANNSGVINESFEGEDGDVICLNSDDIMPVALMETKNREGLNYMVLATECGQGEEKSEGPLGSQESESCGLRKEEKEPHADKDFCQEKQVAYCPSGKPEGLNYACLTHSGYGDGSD
Test: Ros1 enzymatic assay
Type: biochemical
Conditions: Ros1 enzymatic assay; read-out: ROS1 pIC50 (converted)
Mark Yes only when IC50 stays strictly below 80 nM. Values equal to the cut-off are No.

- compound: "CC(C)c1ccc(COc2ccc(-c3c(-c4ccncc4)nn4c3CNCC4)cc2)cc1"
  classification: "No"
- compound: "CC(C)c1ccc(COc2ccc(-c3c(-c4ccncc4)nn4c3C(=O)N(CC(O)CO)CC4)c(F)c2)cc1 (stereo not drawn)"
  classification: "Yes"
- compound: "CNCC(=O)N1CCn2nc(-c3ccncc3)c(-c3ccc(OCc4ccc(C(C)C)cc4)cc3)c2C1"
  classification: "No"
- compound: "CC(C)c1cc(F)c(COc2ccc(-c3c(-c4ccncc4)nn4c3C(=O)N(CCO)CC4)cc2)cc1F"
  classification: "No"
- compound: "CC(C)c1ccc(COc2ccc(-c3c(-c4ccncc4)nn4c3C(=O)N(CC(O)CO)CC4)cc2)cc1 (stereo not drawn) [Compound 43]"
  classification: "Yes"
- compound: "CC(C)c1ccc(COc2ccc(-c3c(-c4ccncc4)nn4c3C(=O)N(CCOCCO)CC4)cc2)cc1"
  classification: "Yes"
- compound: "CC(C)NC(=O)CN1CCn2nc(-c3ccncc3)c(-c3ccc(OCc4ccc(C(C)C)cc4)cc3)c2C1=O"
  classification: "No"
- compound: "N#Cc1ncc(COc2ccc(-c3c(-c4ccncc4)nn4c3C(=O)NCC4)cc2)cc1Cl"
  classification: "No"
- compound: "O=C1c2c(-c3ccc(OCc4ccc(C5CC5)cc4)cc3)c(-c3ccncn3)nn2CCN1CCO"
  classification: "No"
- compound: "CC(C)c1ccc(COc2ccc(-c3c(-c4ccncn4)nn4c3C(=O)N(CC(O)CO)CC4)cc2)cc1 (stereo not drawn)"
  classification: "Yes"
- compound: "CC(C)c1ccc(COc2ccc(-c3c(-c4ccncn4)nn4c3C(=O)N(C(C)C)CC4)cc2)cc1"
  classification: "Yes"
- compound: "CC(C)c1ccc(C2CCc3cc(-c4c(-c5ccncc5)nn5c4C(=O)N(CCO)CC5)ccc3O2)cc1 (stereo not drawn)"
  classification: "No"
- compound: "CC(C)c1ccc(C2CNc3cc(-c4c(-c5ccncc5)nn5c4C(=O)NCC5)ccc3O2)cc1 (stereo not drawn) [Compound 224]"
  classification: "No"

====

Target: Ba/F3 cells containing Ros1 with a mutation at the gatekeeper residue (L2026M) (Homo sapiens, UniProt P08922, L2026M, cells depend on it, form not given)
Sequence (P08922 whole entry L2026M, form open): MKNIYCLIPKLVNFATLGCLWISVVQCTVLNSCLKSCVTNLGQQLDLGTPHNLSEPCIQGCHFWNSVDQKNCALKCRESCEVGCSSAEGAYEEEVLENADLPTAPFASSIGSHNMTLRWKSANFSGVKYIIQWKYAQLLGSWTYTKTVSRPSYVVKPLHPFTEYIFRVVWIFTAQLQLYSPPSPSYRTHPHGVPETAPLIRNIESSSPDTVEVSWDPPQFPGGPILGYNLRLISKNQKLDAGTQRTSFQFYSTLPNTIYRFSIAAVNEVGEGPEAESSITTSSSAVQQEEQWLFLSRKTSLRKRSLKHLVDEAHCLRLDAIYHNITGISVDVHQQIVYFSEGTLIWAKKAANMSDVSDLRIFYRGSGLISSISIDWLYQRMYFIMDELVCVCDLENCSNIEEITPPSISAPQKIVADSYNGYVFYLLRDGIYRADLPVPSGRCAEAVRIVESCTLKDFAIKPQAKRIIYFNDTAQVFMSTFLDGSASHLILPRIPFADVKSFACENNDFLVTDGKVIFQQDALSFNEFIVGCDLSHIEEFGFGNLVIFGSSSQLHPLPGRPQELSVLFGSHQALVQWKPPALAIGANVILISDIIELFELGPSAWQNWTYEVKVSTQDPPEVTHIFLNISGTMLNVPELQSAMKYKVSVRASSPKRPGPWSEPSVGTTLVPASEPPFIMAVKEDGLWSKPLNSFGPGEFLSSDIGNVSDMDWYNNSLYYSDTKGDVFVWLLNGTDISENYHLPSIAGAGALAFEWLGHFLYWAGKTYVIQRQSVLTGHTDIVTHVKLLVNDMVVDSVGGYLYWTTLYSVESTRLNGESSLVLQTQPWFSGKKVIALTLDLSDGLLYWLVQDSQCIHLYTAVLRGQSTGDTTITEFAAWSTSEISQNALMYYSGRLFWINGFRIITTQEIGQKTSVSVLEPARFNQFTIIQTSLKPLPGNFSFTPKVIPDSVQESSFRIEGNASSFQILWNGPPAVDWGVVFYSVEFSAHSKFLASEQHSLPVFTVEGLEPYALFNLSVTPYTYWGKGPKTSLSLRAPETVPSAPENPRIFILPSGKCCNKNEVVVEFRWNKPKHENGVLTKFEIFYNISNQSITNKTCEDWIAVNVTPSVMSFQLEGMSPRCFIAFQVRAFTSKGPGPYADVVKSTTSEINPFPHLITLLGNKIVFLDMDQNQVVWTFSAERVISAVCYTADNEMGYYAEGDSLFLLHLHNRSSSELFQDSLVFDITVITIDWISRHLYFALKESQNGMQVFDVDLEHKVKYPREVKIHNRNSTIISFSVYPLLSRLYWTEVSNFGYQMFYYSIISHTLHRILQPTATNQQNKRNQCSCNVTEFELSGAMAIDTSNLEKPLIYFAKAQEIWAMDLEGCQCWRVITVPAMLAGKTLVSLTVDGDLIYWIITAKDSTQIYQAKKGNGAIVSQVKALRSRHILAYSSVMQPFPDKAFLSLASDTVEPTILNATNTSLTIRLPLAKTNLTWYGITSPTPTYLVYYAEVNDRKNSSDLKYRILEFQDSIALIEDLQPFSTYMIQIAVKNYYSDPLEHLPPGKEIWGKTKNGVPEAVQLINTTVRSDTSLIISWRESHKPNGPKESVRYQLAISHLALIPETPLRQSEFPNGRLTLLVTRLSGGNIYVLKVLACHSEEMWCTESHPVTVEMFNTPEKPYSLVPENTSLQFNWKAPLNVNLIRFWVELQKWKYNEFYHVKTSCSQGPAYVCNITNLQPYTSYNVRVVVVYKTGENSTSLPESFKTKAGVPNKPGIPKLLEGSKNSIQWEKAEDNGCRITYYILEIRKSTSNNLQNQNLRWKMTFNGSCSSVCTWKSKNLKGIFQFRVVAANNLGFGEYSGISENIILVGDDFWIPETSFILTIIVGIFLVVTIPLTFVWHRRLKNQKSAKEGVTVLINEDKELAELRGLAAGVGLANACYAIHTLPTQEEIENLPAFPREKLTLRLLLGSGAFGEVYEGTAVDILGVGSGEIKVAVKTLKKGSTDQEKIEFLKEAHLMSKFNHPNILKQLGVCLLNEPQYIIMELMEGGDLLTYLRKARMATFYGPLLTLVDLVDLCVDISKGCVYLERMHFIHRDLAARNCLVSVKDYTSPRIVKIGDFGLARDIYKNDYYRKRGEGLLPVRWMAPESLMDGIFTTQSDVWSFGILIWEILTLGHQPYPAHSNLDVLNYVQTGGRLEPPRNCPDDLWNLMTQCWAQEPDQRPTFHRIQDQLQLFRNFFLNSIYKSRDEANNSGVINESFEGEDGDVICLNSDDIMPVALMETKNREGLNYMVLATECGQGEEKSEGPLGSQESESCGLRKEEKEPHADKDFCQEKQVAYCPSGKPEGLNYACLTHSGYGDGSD
Test: Ba/F3-Ros1 cell proliferation assay, L2026M gatekeeper mutant
Type: cell-based, murine
Details: without IL-3
Recorded Ba/F3 Ros1 L2026M (-IL-3) pIC50, one value per entry.

- compound: "Cc1ccc(COc2ccc(-c3c(-c4ccncc4)nn4c3C(=O)NCC4)cc2)cc1"
  Ba/F3 Ros1 L2026M (-IL-3) pIC50: 6.6
- compound: "O=C1NCCn2nc(-c3ccncc3)c(-c3ccc(OCc4ccc(OC(F)(F)F)cc4)cc3)c21"
  Ba/F3 Ros1 L2026M (-IL-3) pIC50: 7.3
- compound: "CNC(=O)CN1CCn2nc(-c3ccncn3)c(-c3ccc(OCc4ccc(C(C)C)cc4)cc3)c2C1=O"
  Ba/F3 Ros1 L2026M (-IL-3) pIC50: 6.7
- compound: "CC(O)CN1CCn2nc(-c3ccncc3)c(-c3ccc(OCc4ccc(C5CC5)cc4)cc3)c2C1=O (stereo not shown) [Compound 134]"
  Ba/F3 Ros1 L2026M (-IL-3) pIC50: 7.0
- compound: "CC(C)c1ccc(COc2ccc(-c3c(-c4ccncc4)nn4c3C(=O)N(CCO)CC4)c(C#N)c2)cc1"
  Ba/F3 Ros1 L2026M (-IL-3) pIC50: 7.7
- compound: "CC(CO)c1ccc(COc2ccc(-c3c(-c4ccncc4)nn4c3C(=O)N(CCO)CC4)cc2)cc1 (stereo not shown)"
  Ba/F3 Ros1 L2026M (-IL-3) pIC50: 6.2
- compound: "CC(C)c1ccc(C(CO)Oc2ccc(-c3c(-c4ccncc4)nn4c3C(=O)NCC4)cc2)cc1 (stereo not shown)"
  Ba/F3 Ros1 L2026M (-IL-3) pIC50: 7.6

====

Molecular target: Ba/F3 cells containing Ros1 wild-type protein (Homo sapiens, UniProt P08922, cells depend on it, form not given)
Construct: The background only speaks of 'a number of different unrelated proteins' and names SLC34A2-ROS1 for HCC78 cells
Sequence (P08922 whole entry, stated change not applied): as the sequence (P08922 whole entry L2026M, form open) above, with M2026L counted along it
Assay: Ba/F3-Ros1 cell proliferation assay, wild-type Ros1
Assay type: cell-based, murine
Details: without IL-3
Returns t if the recorded BaF3-ROS1-IL3 pIC50 is greater than or equal to 7, and f otherwise.

- molecule: "COc1cc(C(C)C)ccc1COc1ccc(-c2c(-c3ccncc3)nn3c2C(=O)NCC3)cc1 [Compound 216]"
  classification: "t"
- molecule: "CC(O)CN1CCn2nc(-c3ccncc3)c(-c3ccc(OCc4ccc(C5CC5)cc4)cc3)c2C1=O (centres unmarked) [Compound 134]"
  classification: "t"
- molecule: "O=C1NCCn2nc(-c3ccncc3)c(-c3ccc(OCc4ccc(C5CC5)cc4)cc3)c21 [Compound 4]"
  classification: "t"
- molecule: "CC(C)NC(=O)CN1CCn2nc(-c3ccncc3)c(-c3ccc(OCc4ccc(C(C)C)cc4)cc3)c2C1 [Compound 178]"
  classification: "f"
- molecule: "CC(C)c1ccc(COc2ccc(-c3c(-c4ccncc4)nn4c3C(=O)NCC4)c(F)n2)cc1 [Compound 74]"
  classification: "t"
- molecule: "COc1cc(-c2c(-c3ccncc3)nn3c2C(=O)NCC3)ccc1OCc1ccc(C(C)C)cc1 [Compound 32]"
  classification: "t"

====

Measured Ba/F3 Ros1 L2026M (-IL-3) pIC50 of individual entries
Target: Ba/F3 cells containing Ros1 with a mutation at the gatekeeper residue (L2026M) (Homo sapiens, UniProt P08922, L2026M, cells depend on it, form not given)
Assay: Ba/F3-Ros1 cell proliferation assay, L2026M gatekeeper mutant
Format: cell-based, murine
Conditions: without IL-3
measurementType: Ba/F3 Ros1 L2026M (-IL-3) pIC50

- molecule: "COCCN1CCn2nc(-c3ccncc3)c(-c3ccc(OCc4ccc(C(C)C)cc4)cc3)c2C1=O"
  readingQualifier: "="
  recordedMeasurement: 7.2
- molecule: "CC(C)c1ccc(COc2ccc(-c3c(-c4ccnc(N)c4)nn4c3C(=O)NCC4)cc2)cc1"
  readingQualifier: "="
  recordedMeasurement: 7.4
- molecule: "Cc1cc(-c2c(-c3ccncc3)nn3c2C(=O)NCC3)cc(C)c1OCc1ccc(C(C)C)cc1"
  readingQualifier: "<"
  recordedMeasurement: 5
- molecule: "CNC(=O)CN1CCn2nc(-c3ccncc3)c(-c3ccc(OCc4ccc(C(C)C)cc4)cc3)c2C1"
  readingQualifier: "="
  recordedMeasurement: 6.8
- molecule: "CC(C)c1ccc(COc2ccc(-c3c(-c4ccncc4)nn4c3C(=O)NCC4)c(F)c2F)cc1"
  readingQualifier: "="
  recordedMeasurement: 7.1
- molecule: "CC(C)c1ccc(COc2ccc(-c3c(-c4ccncc4F)nn4c3C(=O)NCC4)cc2)cc1"
  readingQualifier: "="
  recordedMeasurement: 7.1
- molecule: "CC(C)c1ccc(COc2ccc(-c3c(-c4ccncc4)nn4c3CN(CC(=O)N(C)C)CC4)cc2)cc1"
  readingQualifier: "="
  recordedMeasurement: 6.6
- molecule: "CC(C)c1ccc(C(C)Oc2ccc(-c3c(-c4ccncc4)nn4c3C(=O)NCC4)cc2)cc1 (stereo not drawn)"
  readingQualifier: "="
  recordedMeasurement: 6.0
- molecule: "CC(C)c1ccc(COc2ccc(-c3c(-c4ccncc4)nn4c3C(=O)N(CC(O)CO)CC4)cc2)cc1 (stereo not drawn) [Compound 44]"
  readingQualifier: "="
  recordedMeasurement: 6.9
- molecule: "CC(C)c1cc(F)c(COc2ccc(-c3c(-c4ccncc4)nn4c3C(=O)N(CC(O)CO)CC4)cc2)cc1F (stereo not drawn) [Compound 99]"
  readingQualifier: "="
  recordedMeasurement: 6.0
- molecule: "O=C1c2c(-c3ccc(OCc4ccc(C5CC5)cc4)cc3)c(-c3ccncc3)nn2CCN1CCO"
  readingQualifier: "="
  recordedMeasurement: 7.0
- molecule: "O=C1c2c(-c3ccc(OCc4ccc(C5CC5)nc4)cc3)c(-c3ccncn3)nn2CCN1CCO"
  readingQualifier: "="
  recordedMeasurement: 5.6
- molecule: "CC(C)c1ccc(C2CCc3cc(-c4c(-c5ccncc5)nn5c4C(=O)NCC5)ccc3O2)cc1 (stereo not drawn)"
  readingQualifier: "="
  recordedMeasurement: 7.5
- molecule: "Cc1cc(-c2c(-c3ccncc3)nn3c2C(=O)N(CCO)CC3)ccc1OCc1ccc(C(C)C)cc1"
  readingQualifier: "="
  recordedMeasurement: 5.9
- molecule: "CC(C)c1ccc(COc2ccc(-c3c(-c4ccncc4)nn4c3C(=O)N(CC(O)CO)CC4)c(F)c2)cc1 (stereo not drawn) [Compound 22]"
  readingQualifier: "="
  recordedMeasurement: 7.4

From: patent US10280170B2
